Hello, the source for this data is patent US12297186B2, in case you need it.

- MEASUREMENT_DESCRIPTION: Plasma pharmacokinetic assay, single oral administration
- Type: in vivo, male Sprague Dawley rats
- CONDITIONS_USED: male, Sprague-Dawley, po; rat, P.O., 5 mg/kg, plasma
- Experimental: Plasma Pharmacokinetic Assay The objective of this study was to investigate the plasma pharmacokinetics of some compounds of the present invention in male Sprague Dawley rats following a single oral administration. […] All samples were processed for analysis by protein precipitation using acetonitrile and analysed with fit-for-purpose LC-MS/MS method (LLOQ=1.01 ng/mL). Pharmacokinetic parameters were calculated using the non-compartmental analysis tool of Phoenix WinNonlin® (Version 7.0).
READOUT_LABEL: Tmax (min)

{"SMILES_TEXT": "Cc1cccc(-c2nn(CC(=O)NCc3ccccc3)cc2-c2ccnc3ccccc23)n1", "UNIT_INFO": "min", "DATA_VALUE": 15}
{"SMILES_TEXT": "Cc1cccc(-c2nn(CC(=O)NCc3ccccc3C)cc2-c2ccnc3ccccc23)n1", "UNIT_INFO": "min", "DATA_VALUE": 15}
{"SMILES_TEXT": "Cc1cccc(-c2nn(CC(=O)NCc3ccccc3Cl)cc2-c2ccnc3ccccc23)n1", "UNIT_INFO": "min", "DATA_VALUE": 19.8}

----------
- MEASUREMENT_DESCRIPTION: Metabolic stability assay, rat microsomes
- Format: in vitro ADME
- CONDITIONS_USED: rat recombinant microsomes (Tebu-Xenotech), pH 7.4
READOUT_LABEL: microsomal CLint (µL/min/mg)

Example entries begin here.
{"SMILES_TEXT": "Cc1cccc(-c2nn(CC(=O)NCc3c(F)cccc3F)cc2-c2ccnc3ccccc23)n1", "microsomal CLint (µL/min/mg)": 360}
{"SMILES_TEXT": "Cc1cccc(-c2nn(CC(=O)NCc3ccccc3Cl)cc2-c2ccnc3ccccc23)n1", "microsomal CLint (µL/min/mg)": 644}
{"SMILES_TEXT": "CCc1ccccc1CNC(=O)Cn1cc(-c2ccnc3ccccc23)c(-c2cccc(C)n2)n1", "microsomal CLint (µL/min/mg)": 600}

A: Cc1cccc(-c2nn(CC(=O)NCc3c(C)cccc3C)cc2-c2ccnc3ccccc23)n1
B: Cc1ccc(CNC(=O)Cn2cc(-c3ccnc4ccccc34)c(-c3cccc(C)n3)n2)cc1
## Input Name the one with the greater microsomal CLint value, either A or B as given. Could you answer with the label of the item you picked?
## Output A
(A: 826 µL/min/mg, B: 381 µL/min/mg)

----------
- SUBJECT_OF_TEST: Human TGFβR-1 kinase (Homo sapiens (Human))
- Sequence (P36897 34-503): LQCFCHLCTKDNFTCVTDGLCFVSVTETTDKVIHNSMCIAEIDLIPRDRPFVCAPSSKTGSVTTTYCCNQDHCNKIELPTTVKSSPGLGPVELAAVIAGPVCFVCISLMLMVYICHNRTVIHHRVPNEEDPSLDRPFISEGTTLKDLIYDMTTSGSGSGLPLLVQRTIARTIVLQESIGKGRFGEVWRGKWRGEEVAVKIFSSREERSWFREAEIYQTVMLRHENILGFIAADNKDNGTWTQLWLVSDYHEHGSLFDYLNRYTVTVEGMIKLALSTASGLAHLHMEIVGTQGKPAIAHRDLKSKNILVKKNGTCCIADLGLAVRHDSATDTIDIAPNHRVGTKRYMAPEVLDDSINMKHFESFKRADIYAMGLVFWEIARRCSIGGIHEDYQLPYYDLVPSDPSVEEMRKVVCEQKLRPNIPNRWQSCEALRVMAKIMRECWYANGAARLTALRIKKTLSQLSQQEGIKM
- MEASUREMENT_DESCRIPTION: In vitro enzyme assay: inhibition of TGFβR-1 kinase activity (ADP-Glo)
- Assay type: biochemical
- CONDITIONS_USED: enzyme assay; read-out: IC50 against TGFβR-1
- Protocol: In Vitro Enzyme Assay: Inhibition of TGFβR-1Kinase Activity Human TGFβl R-1 inhibition experiments were carried out in a white 384-microplate low flange (Corning 3572) with ADP-Glo kinase Assay Kit (Promega V9101) and TGβR-1 Kinase Enzyme System (Promega V4092). […] Luminiscence (1000 ms) was measured in Perkin Elmer EnSpire Multimode plate reader.
READOUT_LABEL: IC50

Memo: `Cc1cccc(-c2nn(CC(=O)O)cc2-c2ccnc3ccccc23)n1` , reported IC50: > 0.8 µM
